# Procedure details: Cl-/NO3- exchange in LUVs with preincorporated anionophore (lucigenin method)
# Assay type: biochemical
# Experimental conditions: transporter preincorporated in LUVs (70% POPC + 30% cholesterol), 25 mM NaCl gradient, 225 mM NaNO3; new compound or new data

- Compound structure string: "COCCOCCOC(=O)[C@]12CC[C@@H](NC(=O)Nc3cc(C(F)(F)F)cc(C(F)(F)F)c3)C[C@@H]1C[C@@H](NC(=O)Nc1cc(C(F)(F)F)cc(C(F)(F)F)c1)CC2"
  Specific initial rate [I] / s^–1: 19
- Compound structure string: "CCOC(=O)[C@]12CC[C@@H](NC(=S)Nc3ccc([N+](=O)[O-])cc3)C[C@@H]1C[C@@H](NC(=S)Nc1ccc([N+](=O)[O-])cc1)CC2"
  Specific initial rate [I] / s^–1: 310
- Compound structure string: "COCCOCCOC(=O)[C@]12CC[C@@H](NC(=O)Nc3ccc(C(F)(F)F)cc3)C[C@@H]1C[C@@H](NC(=O)Nc1ccc(C(F)(F)F)cc1)CC2"
  Specific initial rate [I] / s^–1: 9
